Test: Population pharmacokinetic analysis (NONMEM), monkey
Type: in vivo
Details: monkey, plasma, intravenous; monkeys, 14-day continuous infusion, 15 mg/kg/day (Example 9 analysis)
recordedEndpoint: clearance (mL/min/kg)
Numbers only here, please. The scale is mL/min/kg.

Q: Form field: reported clearance of CC(C)=CCC/C(C)=C/CC/C(C)=C/CN1C(=O)c2cccc(O)c2Nc2c(O)cc(O)cc21 [Formula I]
A: 9.5

* * *

Assay: Maximum tolerated dose and tolerability of bolus administration in mice
Type: in vivo
Conditions: mouse, in vivo, IV bolus
recordedEndpoint: MTD (mg/kg)
Note: unit mg/kg is implicit; provide only the numeric part.

Q: Recorded MTD of CC(C)=CCC/C(C)=C/CC/C(C)=C/CN1C(=O)c2cccc(O)c2Nc2c(O)cc(O)cc21 , please.
A: 200

* * *

Assay: Allometric extrapolation of population pharmacokinetic parameters to humans
Details: human, plasma, intravenous, estimated from allometric equations derived from mouse, rat and monkey, read-out: t1/2,β (converted)
recordedEndpoint: half-life
Please provide the amount together with its unit, number first.

Q: Recorded half-life of CC(C)=CCC/C(C)=C/CC/C(C)=C/CN1C(=O)c2cccc(O)c2Nc2c(O)cc(O)cc21 , please.
A: 13.8 h

* * *

Assay: Allometric extrapolation of population pharmacokinetic parameters to humans
Details: plasma, intravenous; Human, WT 70 Kg; estimated from allometric equations; read-out: Vss
recordedEndpoint: Vd (L)
Give the number; L is assumed, so skip it.

Q: Fill in the blank: the reported Vd of CC(C)=CCC/C(C)=C/CC/C(C)=C/CN1C(=O)c2cccc(O)c2Nc2c(O)cc(O)cc21 is ____.
A: 53.1

* * *

Assay: Pharmacokinetics and tissue distribution after bolus IV, IP, SC and PO administration in mice
Type: in vivo, female Crl: CD1 mice
Conditions: female, Crl:CD1, mouse, plasma, 30 mg/kg, IP bolus, read-out: plasma concentration remained for up to 8 hours
recordedEndpoint: concentration at 8 h

Q: Give its concentration at 8 h value. Item: CC(C)=CCC/C(C)=C/CC/C(C)=C/CN1C(=O)c2cccc(O)c2Nc2c(O)cc(O)cc21 [Formula I]
A: ~950 nM

* * *

Assay: Pharmacokinetics and tissue distribution after bolus IV, IP, SC and PO administration in mice
Type: in vivo, female Crl: CD1 mice
Conditions: female, Crl:CD1, mouse, bolus IV 30 mg/kg, plasma, read-out: t1/2 α
recordedEndpoint: half-life

Q: Look at this compound and give its reported half-life. CC(C)=CCC/C(C)=C/CC/C(C)=C/CN1C(=O)c2cccc(O)c2Nc2c(O)cc(O)cc21 [Formula I]
A: 4.7 min
